Each recorded value in this set is attributed to patent US20210277015A1.

# EC50 per entry
# Measured Target: OGA (Homo sapiens, UniProt O60502)
# Construct: endogenous in cells; host or cells: HEK293 cells inducible for P301L mutant human Tau (isoform 2N4R)
# Test: OGA cellular assay (ICC detection of O-GlcNAcylated proteins in HEK293 cells inducible for P301L mutant human Tau)
# Format: cell-based
# Protocol Conditions: HEK293 cells inducible for P301L mutant human Tau, 6 hours incubation, ICC O-GlcNAcylation; read-out: Cellular hOGA; pEC50 (converted)

Solved entries (count: 3):
Molecule: COc1cc(C[C@H]2CCN(C(C)c3cnc4c(c3)OCCN4)C2)cc(C)n1 (stereo partly shown)
EC50: 501 nM
//
Molecule: COc1cc(C[C@H]2CN([C@@H](C)c3ccc4c(n3)OCCO4)C[C@@H]2C)cc(C)n1 (stereo in doubt)
EC50: ~1000 nM
//
Molecule: Cc1ncc(O[C@@H]2CCN(C(C)c3nc4c(cc3F)OCCO4)C2)nc1C (stereo partly shown)
EC50: 501 nM

Query molecule follows.
Query block: Param item = Cc1cc(O[C@@H]2CCN(C(C)c3nc4c(cc3F)OCCO4)C2)ccn1 (stereo partly shown) ; retrieve measured EC50.
Result block: 501 nM
